Test system: PC-3
Test: Anticancer activity against human PC-3 cells assessed as cell growth inhibition measured by MTT assay
Type: functional, cell-based
pIC50: −log10 of the molar value.
READOUT KIND: pIC50

Past entries and their recorded results:
// field: pIC50; key: COc1ccc(NC(c2ccc(OC)cc2)n2c(=O)ccc3cc(O)ccc32)cc1 (stereo unspecified) ; value = 4.07

// field: pIC50; key: C#Cc1cccc(Nc2ncnc3cc(OCCOC)c(OCCOC)cc23)c1 [ERLOTINIB] ; value = 4.57

// field: pIC50; key: COc1ccc(C(Nc2ccc(Cl)cc2)n2c(=O)ccc3cc(O)ccc32)cc1 (stereo unspecified) ; value = 4.45

// field: pIC50; key: COc1ccc(C(Nc2ccc([N+](=O)[O-])cc2)n2c(=O)ccc3cc(O)ccc32)cc1 (stereo unspecified) ; value = 4.32

(a) COc1ccc(C(Nc2ccc(Br)cc2)n2c(=O)ccc3cc(O)ccc32)cc1 (stereo unspecified)
(b) COc1ccc(C(Nc2ccccc2)n2c(=O)ccc3cc(O)ccc32)cc1 (stereo unspecified)
Challenge: I'm curious whether a or b has the smaller pIC50 number. Which is it? Your answer should be the label of the entry you select.
Response given: b
(b: 4.10, a: 4.48)

###

Tested on: MCF7
Assay: Anticancer activity against human MCF7 cells assessed as cell growth inhibition measured by MTT assay
Assay type: functional, cell-based
pIC50: −log10 of the molar value.
READOUT KIND: pIC50

(P) COc1ccc(C(Nc2ccc([N+](=O)[O-])cc2)n2c(=O)ccc3cc(O)ccc32)cc1 (stereo unspecified)
(Q) C#Cc1cccc(Nc2ncnc3cc(OCCOC)c(OCCOC)cc23)c1
Challenge: Of the two listed items, P and Q , which carries the larger pIC50 figure? Your answer should be the label of the entry you select.
Response given: Q
(Q: 4.94, P: 4.68)

(1) COc1ccc(C(Nc2ccc(Cl)cc2)n2c(=O)ccc3cc(O)ccc32)cc1 (stereo unspecified)
(2) COc1ccc(NC(c2ccc(OC)cc2)n2c(=O)ccc3cc(O)ccc32)cc1 (stereo unspecified)
Challenge: Of the two listed items, 1 and 2 , which carries the larger pIC50 figure? Your answer should be the label of the entry you select.
Response given: 1

(1) COc1ccc(C(Nc2ccc(Br)cc2)n2c(=O)ccc3cc(O)ccc32)cc1 (stereo unspecified)
(2) COc1ccc(C(Nc2ccccc2)n2c(=O)ccc3cc(O)ccc32)cc1 (stereo unspecified)
Challenge: Of the two listed items, 1 and 2 , which carries the larger pIC50 figure? Your answer should be the label of the entry you select.
Response given: 1
(1: 4.97, 2: 4.45)

###

Target: UniProt P00533
Sequence (P00533 whole entry): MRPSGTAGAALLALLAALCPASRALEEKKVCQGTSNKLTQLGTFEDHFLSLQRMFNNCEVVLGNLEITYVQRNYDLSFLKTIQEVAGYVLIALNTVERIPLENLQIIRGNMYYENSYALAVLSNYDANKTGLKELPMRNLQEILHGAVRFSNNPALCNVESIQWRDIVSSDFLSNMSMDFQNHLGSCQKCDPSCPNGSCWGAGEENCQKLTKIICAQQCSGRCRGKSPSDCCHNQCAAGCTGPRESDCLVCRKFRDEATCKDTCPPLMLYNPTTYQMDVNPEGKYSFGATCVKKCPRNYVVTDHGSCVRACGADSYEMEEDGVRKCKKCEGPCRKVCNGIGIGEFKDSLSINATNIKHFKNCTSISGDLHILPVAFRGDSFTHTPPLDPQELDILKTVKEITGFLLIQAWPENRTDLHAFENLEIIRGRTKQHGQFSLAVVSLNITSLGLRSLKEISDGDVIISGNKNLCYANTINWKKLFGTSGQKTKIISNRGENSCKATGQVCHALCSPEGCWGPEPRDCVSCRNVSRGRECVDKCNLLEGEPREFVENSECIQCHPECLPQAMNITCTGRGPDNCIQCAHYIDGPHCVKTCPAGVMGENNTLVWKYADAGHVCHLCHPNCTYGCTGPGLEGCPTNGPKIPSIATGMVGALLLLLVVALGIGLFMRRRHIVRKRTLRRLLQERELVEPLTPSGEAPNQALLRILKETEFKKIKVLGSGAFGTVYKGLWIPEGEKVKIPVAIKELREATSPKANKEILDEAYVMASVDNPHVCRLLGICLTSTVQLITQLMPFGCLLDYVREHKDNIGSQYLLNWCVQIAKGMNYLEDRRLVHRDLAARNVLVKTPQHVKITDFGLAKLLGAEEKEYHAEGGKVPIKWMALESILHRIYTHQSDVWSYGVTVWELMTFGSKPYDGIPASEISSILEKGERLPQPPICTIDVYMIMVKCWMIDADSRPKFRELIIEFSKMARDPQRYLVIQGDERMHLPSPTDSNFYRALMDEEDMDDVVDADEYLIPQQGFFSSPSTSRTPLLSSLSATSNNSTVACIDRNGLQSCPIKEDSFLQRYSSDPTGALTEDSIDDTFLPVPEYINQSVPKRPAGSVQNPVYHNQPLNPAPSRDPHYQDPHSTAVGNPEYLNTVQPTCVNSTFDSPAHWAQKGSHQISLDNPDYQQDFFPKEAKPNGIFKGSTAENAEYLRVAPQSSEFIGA
Assay: Inhibition of recombinant wild type EGFR-TK (unknown origin) by ELISA
READOUT KIND: IC50 (µM)

Past entries and their recorded results:
// field: IC50; key: COc1ccc(C(Nc2ccc([N+](=O)[O-])cc2)n2c(=O)ccc3cc(O)ccc32)cc1 (stereo not given) ; value = 1.35

// field: IC50; key: COc1ccc(C(Nc2ccc(Br)cc2)n2c(=O)ccc3cc(O)ccc32)cc1 (stereo not given) ; value = 0.96

(a) COc1ccc(NC(c2ccc(OC)cc2)n2c(=O)ccc3cc(O)ccc32)cc1 (stereo not given)
(b) COc1ccc(C(Nc2ccc(Cl)cc2)n2c(=O)ccc3cc(O)ccc32)cc1 (stereo not given)
(c) COc1ccc(C(Nc2ccccc2)n2c(=O)ccc3cc(O)ccc32)cc1 (stereo not given)
Challenge: Put the entries in order of IC50, starting with the largest number. Rank them, then answer with their labels in that order.
Response given: c, a, b
(c: 14.3 µM, a: 5.29 µM, b: 1.13 µM)

###

Test system: HCT-116
Experiment: Anticancer activity against human HCT-116 cells assessed as cell growth inhibition measured by MTT assay
Format: functional, cell-based
READOUT KIND: IC50 (µM)

// field: IC50; key: COc1ccc(C(Nc2ccc([N+](=O)[O-])cc2)n2c(=O)ccc3cc(O)ccc32)cc1 (stereo unspecified) ; value = 36.6

// field: IC50; key: `C#Cc1cccc(Nc2ncnc3cc(OCCOC)c(OCCOC)cc23)c1` ; value = 20.5

// field: IC50; key: COc1ccc(NC(c2ccc(OC)cc2)n2c(=O)ccc3cc(O)ccc32)cc1 (stereo unspecified) ; value = 73.3

// field: IC50; key: COc1ccc(C(Nc2ccc(Cl)cc2)n2c(=O)ccc3cc(O)ccc32)cc1 (stereo unspecified) ; value = 20.4

(1) COc1ccc(C(Nc2ccc(Br)cc2)n2c(=O)ccc3cc(O)ccc32)cc1 (stereo unspecified)
(2) COc1ccc(C(Nc2ccccc2)n2c(=O)ccc3cc(O)ccc32)cc1 (stereo unspecified)
Challenge: I'm curious whether 1 or 2 has the smaller IC50 number. Which is it? Your answer should be the label of the entry you select.
Response given: 1
